Entry source: ChEMBL document CHEMBL3272158

protocol_description: Toxicity in ip dosed albino rat
Assay type: organism-based
test_settings: in vivo
LD50 overview

compound: CCC(=O)O[C@@]1(c2ccccc2)C[C@H]2CC[C@H]1N(C)C2 (relative stereo)
LD50: 12.3 mg/kg

compound: CCC(=O)OC1(c2ccccc2)CCN(C)CC1C (racemic)
LD50: 22 mg/kg
